Recorded Particle size for the following compounds
RUN DESCRIPTION: Characterization of lipid nanoparticles encapsulating Fluc-mRNA prepared from different cap structures
Assay type: physicochemical
MEASUREMENT CONTEXT: LNP (YK-009/DSPC/cholesterol/DMG-PEG2000) with Fluc-mRNA transcribed using the named cap analog
MEASURED QUANTITY: Particle size (nm)

# COMPOUND, MEASURED QUANTITY, UNIT NAME, VALUE
measured = [
    ("CO[C@@H]1[C@H](OP(=O)(O)OC[C@H]2O[C@@H](n3cnc4c(=O)[nH]c(N)nc43)[C@H](O)[C@@H]2O)[C@@H](COP(=O)(O)OP(=O)(O)OP(=O)(O)OC[C@@]2(CF)O[C@@H]([n+]3cn(C)c4c(=O)[nH]c(N)nc43)[C@H](O)[C@@H]2O)O[C@H]1n1cnc2c(N)ncnc21 [YK-CAP-118]", "Particle size", "nm", 75.84),
    ("CO[C@@H]1[C@H](OP(=O)(O)OC[C@H]2O[C@@H](n3cnc4c(=O)[nH]c(N)nc43)[C@H](O)[C@@H]2O)[C@@H](COP(=O)(O)OP(=O)(O)OP(=O)(O)OC[C@H]2O[C@@H]([n+]3cn(C)c4c(=O)[nH]c(N)nc43)[C@H](O)[C@]2(C)NC(C)=O)O[C@H]1n1cnc2c(N)ncnc21 [YK-CAP-106]", "Particle size", "nm", 68.24),
    ("COC[C@]1(COP(=O)(O)OP(=O)(O)OP(=O)(O)OC[C@H]2O[C@@H](n3cnc4c(N)ncnc43)[C@H](OC)[C@@H]2OP(=O)(O)OC[C@H]2O[C@@H](n3cnc4c(=O)[nH]c(N)nc43)[C@H](O)[C@@H]2O)O[C@@H]([n+]2cn(C)c3c(=O)[nH]c(N)nc32)[C@H](O)[C@@H]1O [YK-CAP-117]", "Particle size", "nm", 72.56),
]
